Experiment: OV-KATE Cancer Cell Toxicity qHTS against the NCATS CANVASS Library (AID 1347345)
Conditions: OV-KATE cells viability, CellTiter-Glo luminescence, 72 h; series mostly up to 38.3 µM
Results filed as inconclusive are left out. Active and inactive are the calls of the source. The call rests on the fitted dose curve; in most records, active means well fitted cell-killing curve with a large enough effect; inconclusive means small, poorly fitted or top-dose-only effect; inactive means flat fitted curve, though single readings scatter. Peptide text beside a SMILES is read from it. * marks the point of attachment. Octanoyl = CCCCCCCC(=O)*
Outcomes: yes for active, no for inactive

COMPOUND	CATEGORY
CN1C(=O)C2C(N=CN2C)N(C)C1=O (stereo not given)	no
CCC1=C2CCCN3C(=O)O[C@H]([C@H]1OC(C)=O)[C@H]23	no
C=CC(=C)CC[C@]1(C)[C@H]2C[C@H](OC(=O)C(C)CC)C=C3[C@H](OC(C)=O)O[C@H](OC(C)=O)[C@@]32[C@H](OC)C[C@@H]1C (stereo not given in full)	yes
C[C@@H]1C[C@H]2C[C@]3(CCCCN3C)[C@@H]3C[C@H]2[C@H](C1)N(C)C3	no
CCCCCCC[C@@H](C/C=C/CCC(=O)NCCc1c[nH]c2ccccc12)OC	no
CC(=O)O[C@H]1CC[C@@]2(C)C(CC[C@]3(C)C2CC=C2C4CC(C)(C)CC[C@]4(C)CC[C@]23C)C1(C)C (stereo not given in full)	no
OCc1ccc2ocnc2c1	no
O=Cc1ccc2n1C[C@@]1(OC2)O[C@H](CO)[C@@H](O)[C@@H]1O	no
CC(O)/C=C/C1(O)C(C)(C)CC(O)CC1(C)O (stereo not given)	no
C=C(C)CC[C@H](Cc1c(O)cc(O)c2c1O[C@H](c1ccc(O)cc1O)CC2=O)C(=C)C	no
O=C(O)Cc1c[nH]c2ccccc12	no
O=C(OC1Cc2c(O)cc(O)cc2OC1c1cc(O)c(O)c(O)c1)c1cc(O)c(O)c(O)c1 (stereo not given)	no
CN1C(=O)[C@]23SS[C@@]1(C)C(=O)N2[C@H]1Nc2ccccc2[C@]1(c1c[nH]c2ccccc12)[C@@H]3O	yes
CCCCCCCC(=O)N[C@@H](CC(C)C)C(=O)N[C@H](C=O)CCC(=O)O (Octanoyl-Leu-Glu-aldehyde)	no
O=Cc1ccc2n1C[C@@]1(C[C@H](O)[C@H](O)CO1)OC2	no
CC1=CC2=C[C@H](C)C[C@@]23OC(=C(C)C3=O)CC(C)(C)/C=C/C1=O	yes
C1=C2CCCN[C@@H]2[C@@H]2CCN3CCCC[C@@H]3[C@H](C1)C2	no
C/C1=C/[C@@H](C)[C@H](O)C/C=C/CC/C=C/C(=O)O[C@@H]1[C@H](C)C(=O)/C=C/CC1CC(=O)NC(=O)C1	yes
O=C1c2c(O)cc(O)cc2O[C@@H](c2ccc(O)cc2)[C@@H]1c1c(O)cc(O)c2c(=O)cc(-c3ccc(O)c(O)c3)oc12	no
CS/C=C/C(N)=O	no
CC1C(=O)C23CCC1C[C@]21O[C@@H]2C(C)(C)C=CC(=O)[C@@]23COC1=O (stereo not given in full)	no
COc1ccc(/C=C2\COc3cc(O)ccc3C2=O)cc1	no
CCCCCCCCCCCCCCCC(=O)OC/C=C(\C)CCCC(C)CC(C)C(C)C (stereo not given)	no
Cc1cc(O)cc2oc(C[C@H](C)O)cc(=O)c12	no
C=C1C(=O)C[C@H]2C[C@@H]1[C@]2(C)CCC=C(C)C	no
